test system: RARa:RXR (NR concentration 270 nM, RXRa partner concentration 90 nM); assay: PBM binding z-score (relative to random genomic background probes); higher = stronger binding; sequences stand for … in GC…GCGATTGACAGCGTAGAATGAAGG
Kind request: treat 0.7 as inclusive, so PBM binding z-score at 0.7 or higher is TRUE, anything lower is FALSE.

Use these answered entries as a reference point.
CCTACTGGGCCATTCAGAAGTCATTGATCATATG | FALSE
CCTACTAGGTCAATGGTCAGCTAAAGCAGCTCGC | TRUE
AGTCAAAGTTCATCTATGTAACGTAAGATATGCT | TRUE
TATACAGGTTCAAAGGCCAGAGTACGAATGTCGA | TRUE
CCTAGCAGGCCAGGGTCACACAAGCATTTCGCTT | TRUE
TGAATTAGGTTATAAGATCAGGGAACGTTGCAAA | FALSE
GTGCCAAGGTGAATAGGTCGTTGATGAGTAGGCG | TRUE
TTAATGAGGTTATAAGATCAGGGAACGTTGCAAA | TRUE

input: Form field: PBM binding z-score at least 0.7? Entry: `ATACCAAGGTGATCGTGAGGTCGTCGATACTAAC`
output: TRUE

input: Given the entry `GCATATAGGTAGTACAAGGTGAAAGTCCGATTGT` , answer whether its PBM binding z-score meets or surpasses 0.7.
output: FALSE

input: Does the reported PBM binding z-score for `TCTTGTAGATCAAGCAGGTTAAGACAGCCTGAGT` fall at or above the 0.7 mark?
output: FALSE

input: Dear colleague, could you confirm whether `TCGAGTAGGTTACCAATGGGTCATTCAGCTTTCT` has PBM binding z-score at or above 0.7?
output: TRUE

input: Kindly determine if PBM binding z-score recorded for `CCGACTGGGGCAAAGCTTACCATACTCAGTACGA` is above or exactly 0.7.
output: FALSE

input: Could you verify whether the entry `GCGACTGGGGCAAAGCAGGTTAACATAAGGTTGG` shows PBM binding z-score of no less than 0.7?
output: TRUE

input: Hi team, for `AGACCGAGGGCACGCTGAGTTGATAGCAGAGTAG` , is the recorded PBM binding z-score at or above 0.7?
output: TRUE

input: Threshold query (PBM binding z-score >= 0.7) on `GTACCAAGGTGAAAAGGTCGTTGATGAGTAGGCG`
output: TRUE
